# System: virus-infected cells, CPE inhibition, dose response
# assayName: PubChem AID 806
# testContext: measured here: EC90 CPE inhibition
Recorded EC90 values for a group of molecules are listed next.

Guide cases for EC90, answers given:
COc1ccccc1Cn1c(=O)c2ccccc2n2c(SCc3csc(C)n3)nnc12; > 60 µM
COc1ccc(NC(=O)C2CCCCN2S(=O)(=O)c2ccc(F)cc2)cc1 (stereo not drawn); > 60 µM
Cc1sc2nc3c4ccccc4c(NCc4ccco4)nn3c(=O)c2c1C; > 60 µM

## Task State its EC90 for this molecule: `O=C(c1ccc(S(=O)(=O)N2CCOCC2)cc1)N1CCc2ccccc2C1`
## Result > 60 µM

## Task State its EC90 for this molecule: `COc1ccccc1Cn1c(=O)c2ccccc2n2c(SCC(=O)N3CCCCC3)nnc12`
## Result > 60 µM

## Task State its EC90 for this molecule: `COc1ccc(S(=O)(=O)Nc2ccc(F)cc2)cc1N(C)S(=O)(=O)c1ccc(Cl)cc1`
## Result > 60 µM

## Task State its EC90 for this molecule: `N#CCCN1CCn2c1nc1ccccc12`
## Result > 60 µM

## Task State its EC90 for this molecule: Cc1cccc(NC(=O)C2CC(=O)OC23CCCC3)c1 (stereo not drawn)
## Result > 60 µM

## Task State its EC90 for this molecule: `CC(C)NC(=O)CSc1nnc2sc3ccccc3n12`
## Result > 60 µM

## Task State its EC90 for this molecule: CCOC(=O)CN(C(=O)Cn1nnc2ccccc21)C(C(=O)NCCOC)c1ccccc1 (stereo not drawn)
## Result > 60 µM

## Task State its EC90 for this molecule: `O=c1[nH]c2ccccc2n1Cc1ccccc1`
## Result > 60 µM

## Task State its EC90 for this molecule: `CC(=O)Nc1ccc(Nc2ncnc3c2cnn3-c2ccc(C)cc2C)cc1`
## Result > 60 µM

## Task State its EC90 for this molecule: Cc1cc(NC(=O)C2CC(c3ccc(F)cc3)=NO2)n(-c2ccccc2)n1 (stereo not drawn)
## Result > 60 µM

## Task State its EC90 for this molecule: NS(=O)(=O)c1ccc(CCNC(=O)C2CCCCN2S(=O)(=O)c2ccccc2)cc1 (stereo not drawn)
## Result > 60 µM

## Task State its EC90 for this molecule: COc1ccc(OC)c(C2=NOC(C(=O)Nc3cc(C)nn3-c3ccccc3)C2)c1 (stereo not drawn)
## Result > 60 µM

###

Recorded EC90 values for a group of molecules are listed next.
# System: virus-infected cells, CPE inhibition, dose response
# assayName: PubChem AID 806
# testContext: measured here: EC90 CPE inhibition

## Task State its EC90 for this molecule: `CC(C)c1cccc(C(C)C)c1OCCn1ccnc1`
## Result > 60 µM

## Task State its EC90 for this molecule: `COc1ccc(C)cc1NC(=O)c1cc2ccccc2o1`
## Result > 60 µM

###

# Test system: virus-infected cells, CPE inhibition, dose response
# assayName: PubChem AID 806
# testContext: measured here: EC90 CPE inhibition
reportedMetric: EC90

Guide cases for EC90, answers given:
CS(=O)(=O)c1nc(-c2cccs2)cc(C(F)(F)F)n1; > 60 µM
COc1cccc(C2=NOC(C(=O)Nc3cc(C)nn3-c3ccccc3)C2)c1OC (stereo not given); > 60 µM
O=C(c1cc(-c2ccc(Cl)cc2)n(-c2ccc(Cl)cc2)n1)N1CCOCC1; > 60 µM
O=C1c2ccccc2-c2onc3ccc(Oc4ccccc4)c1c23; > 60 µM
CC(=O)Nc1ccc(Nc2ncnc3c2cnn3-c2ccccc2)cc1; > 60 µM
COc1ccccc1Cn1c(=O)[nH]c2cccnc21; > 60 µM
Cc1ccc(C)c(Cc2c(C)nc3c(C(=O)N4CCOCC4)cnn3c2C)c1; > 60 µM
O=C(CSc1ccc2nnc(-c3ccc(F)cc3)n2n1)NCc1ccco1; > 60 µM

## Task State its EC90 for this molecule: `Cc1cc(C(=O)Nc2c(C)n(C)n(-c3ccccc3)c2=O)cs1`
## Result > 60 µM

## Task State its EC90 for this molecule: CC(C)CCNC(=O)C1CCCCN1S(=O)(=O)c1ccc(F)cc1 (stereo not given)
## Result > 60 µM

## Task State its EC90 for this molecule: `CCSc1nnc([C@H](Cc2ccccc2)NC(=O)OC(C)(C)C)o1`
## Result > 60 µM

## Task State its EC90 for this molecule: Cc1ccc(S(=O)(=O)N2CCCCC2C(=O)NCc2ccco2)cc1 (stereo not given)
## Result > 60 µM

## Task State its EC90 for this molecule: `C=CCSc1nnc(-c2ccc(Cl)cc2Cl)o1`
## Result > 60 µM

## Task State its EC90 for this molecule: COCCNC(=O)C(c1ccccc1C)N(CCOC)C(=O)Cn1nnc2ccccc21 (stereo not given)
## Result > 60 µM
